Assay: Quantitative High-Throughput drug screen in 47 multiple myeloma cell lines against the NCATS MIPE library collection: AMO1_DSMZ cell viability assay (AID 1918927; note: nearly all actives have a fitted effect of over 30% in size; note: potency is the fitted concentration of half-maximal effect)
Conditions: AMO1 myeloma cells viability, CellTiter-Glo ATP luminescence, 48 h; series mostly up to 45.8 µM
Results filed as inconclusive are left out. The source made the active and inactive calls. Calls come from the whole dose curve; as a rule, active = well fitted cell-killing curve with a large enough effect; inconclusive = small, poorly fitted or top-dose-only effect, or effect the other way; inactive = no such curve, though single readings can be large or run the other way.
metric-name: Potency

Solved entries:
>>> readout_value("COc1cc(NC(=O)c2ccc(-c3ccc(Cl)cc3)o2)cc(OC)c1")
"7.43 µM (active)"
>>> readout_value("COc1ccc(C2CC(c3ccccc3)=NN2c2ccc(S(N)(=O)=O)cc2)cc1 (stereo unspecified)")
"11.8 µM (active)"
>>> readout_value("COc1cccc2c1CCCC2CCCN1CCN(C2CCCCC2)CC1 (stereo unspecified)")
"23.5 µM (active)"
>>> readout_value("CC1CCC(C(=O)N(c2cc(C#CC(C)(C)C)sc2C(=O)O)C2CCC(O)CC2)CC1 (stereo unspecified)")
"inactive"
>>> readout_value("COc1ccc(-c2cc(=O)c3c(O)cc(O)cc3o2)cc1O")
"5.26 µM (active)"
>>> readout_value("NC(CO)(CO)CCc1ccc(Sc2cccc(OCc3ccccc3)c2)cc1Cl")
"20.9 µM (active)"

*Q* Need Potency of COc1ncc(-c2ccc3nccc(-c4ccnnc4)c3c2)cc1NS(=O)(=O)c1ccc(F)cc1F , thanks.
*A* 0.0469 µM (active)

*Q* Could you share which Potency value was measured for CC=CCC=CCCC(=O)[C@H]1O[C@@H]1C(N)=O ?
*A* 20.9 µM (active)

*Q* Which Potency value is on record for C[C@]12CC[C@@H]3c4ccc(O)cc4C[C@@H](CCCCCCCCCS(=O)CCCC(F)(F)C(F)(F)F)[C@H]3[C@H]1CC[C@H]2O (stereo partly specified) ?
*A* inactive

*Q* State the recorded Potency for this entry: COC[C@@H](c1ccc(C(F)(F)F)cc1)N1CCN(C2(C)CCN(C(=O)c3c(C)ncnc3C)CC2)C[C@H]1C
*A* 16.6 µM (active)

*Q* Value lookup for Potency; key = CC(C)n1cnc2c(NCCCCCCNC(=O)OC(C)(C)C)nc(NCCO)nc21
*A* 4.69 µM (active)
